Tested on: NCI-H322M lung
method_notes: NCI-60 one-dose screen, 48 h
condition_parameters: 10 µM unless noted
About 83,000 compounds went through this panel and 20% of them were active in at least one assay; those are over-represented in the sample as a whole. Calls of active or inactive are those of the source. Rule for the calls: active = growth percent below 10; inactive = the rest.
Labels: true = active, false = inactive

molecule: Nc1nc(N)c2c(n1)NC(c1sc(Cl)nc1Cl)CC(c1ccc3c(c1)OCO3)=N2 (stereo not drawn)
class_assignment: false

molecule: N#Cc1c(N)c(C(=O)c2ccc3c(c2)OCCO3)n2c1CCCC2
class_assignment: false

molecule: NC(N)=N/N=C\c1ccc(OCc2ccccc2)cc1
class_assignment: false

molecule: O=C(Nc1ccc(OS(=O)(=O)c2ccc(F)cc2)cc1)C12CC3CC(CC(C3)C1)C2
class_assignment: false

molecule: O=Cc1ccc2nc(C(Cl)(Cl)Cl)ccc2c1
class_assignment: false

molecule: CC(C)(C)NC(=O)C(OC(=O)C1CCc2cc(F)ccc2O1)c1ccccc1Cl (stereo not drawn)
class_assignment: false

molecule: Oc1[nH]c2ccc(Cl)cc2c1/C=c1/ccc2c(c1)N=C(c1ccc(F)cc1)N=2
class_assignment: false

molecule: COc1cc(C2C=C(C)N=C3SC=NN32)cc(OC)c1OC (stereo not drawn)
class_assignment: false

molecule: CCOC(=O)c1ccc(NC(=O)NC2=NCCS2)cc1
class_assignment: false

molecule: c1ccc(-c2[nH]c3ccccc3c2-c2ccccc2)cc1
class_assignment: false

molecule: CCCNC(=S)N/N=C(\C)c1ccccn1
class_assignment: true

molecule: CN(C)c1ccc(Nc2c3ccccc3nc3ccccc23)cc1
class_assignment: false

molecule: COc1cccc(Cn2c(-c3nonc3NC(C)=O)nc3ccccc32)c1
class_assignment: false

molecule: Nc1nc(N)c2cc(CNc3ccc(Cl)c(Cl)c3)ccc2n1
class_assignment: false

molecule: CN(C)c1ccc(/C=N/Nc2nnc3n2N=C(c2ccc(Cl)cc2)CS3)cc1
class_assignment: false

molecule: C=CCN(CCOC(=O)c1ccc([N+](=O)[O-])cc1)CCOC(=O)c1ccc([N+](=O)[O-])cc1
class_assignment: false

molecule: C=CCOc1c(Br)cc(Br)cc1Br
class_assignment: false

molecule: Cc1ccc(S(=O)(=O)NC(CCC(=O)Nc2ccc(Cl)cc2)C(=O)Nc2ccc(Cl)cc2)cc1 (stereo not drawn)
class_assignment: false

molecule: O=C(c1ccccc1)N(CCCCl)C(=O)N(CCCCl)C(=O)c1ccccc1
class_assignment: false

molecule: CCOC(=O)c1ccc(N(CCC(=O)O)C(C)=O)cc1
class_assignment: false

molecule: C#CCNC(=S)N/N=C(\C)c1ccccn1
class_assignment: true

molecule: COc1cc2nccc(Oc3ccc(NC(=O)C4(C(=O)Nc5ccc(F)cc5)CC4)cc3)c2cc1Oc1ccc(N)cn1
class_assignment: false

molecule: Clc1ccc(-c2nc(Br)cn3ccnc23)cc1
class_assignment: false

molecule: COc1ccc(NC(=O)/C=C/c2ccc(NC(=O)N3CCCC3)cc2)cn1
class_assignment: false

molecule: CC1CCN(Cc2ccc(NC(=O)c3cc4ccc5cccnc5c4[nH]3)cc2)CC1
class_assignment: false

molecule: COc1cccc(OCC(O)CN2CCN(c3ccccc3)CC2)c1 (stereo not drawn)
class_assignment: false

molecule: O=c1c2sc3ncc(Cl)cc3c2nnn1-c1cccc(Cl)c1
class_assignment: false

molecule: Oc1ccc(Cl)cc1-c1cc(-c2ccccc2Cl)[nH]n1
class_assignment: false

molecule: CN1CCN(Cc2ccc(NC(=O)c3ccc(C#N)c(C#Cc4cnc(N)c5ncccc45)c3)cc2C(F)(F)F)CC1
class_assignment: false

molecule: CN1CCN(Cc2ccc(NC(=O)c3cncc(C#Cc4ncc5ccccn45)c3)cc2C(F)(F)F)CC1
class_assignment: false

molecule: Cc1cc(C)c2c(n1)sc1c(Nc3ccc(O)cc3)ncnc12
class_assignment: false

molecule: COc1cc2nccc(Oc3ccc(NC(=O)C4(C(=O)Nc5ccc(F)cc5)CC4)cc3)c2cc1OC(=O)c1ccc(N)cc1
class_assignment: false

molecule: CC(C)CC(NC(=O)OCC1c2ccccc2-c2ccccc21)C(=O)O (stereo not drawn)
class_assignment: false

molecule: C=C(CN1CC=CCC1)[C@@H]1CC[C@]2(C(=O)OC)CC[C@]3(C)[C@H](CC[C@@H]4[C@@]5(C)CC[C@H](OC(C)=O)C(C)(C)[C@@H]5CC[C@]43C)[C@@H]12
class_assignment: false

molecule: SCc1ccc(CS)cc1
class_assignment: false

molecule: CCCCn1c(C)nc2cc(Nc3nc(Cl)nc4nc[nH]c34)ccc21
class_assignment: false

molecule: F
class_assignment: false

molecule: CCC(C)C1NC(=O)c2nc(oc2-c2ccccc2)-c2csc(n2)-c2csc(n2)-c2nc(oc2C)-c2coc(n2)CNC(=O)C(C(C)CC)NC1=O (stereo not drawn)
class_assignment: true

molecule: COc1ccc(C2C3=C(COC3=O)N(CCO)c3cc(OC)c(OC)cc32)cc1 (stereo not drawn)
class_assignment: false

molecule: COc1cc2c(cc1OC)C(=O)C(Br)CC2 (stereo not drawn)
class_assignment: false

molecule: COc1ccc([C@@H]2[C@@H](Oc3ccccc3)C(=O)N2c2cc(OC)c(OC)c(OC)c2)cc1F
class_assignment: false

molecule: CCOC(=O)c1sc2nc(-c3cc4ccccc4o3)cc(-c3ccc(Cl)cc3)c2c1N
class_assignment: false

molecule: COc1ccc2nc(C)cc(Nc3ccccc3O)c2c1
class_assignment: false
